// values below are reported IC50
test system: NADPH-Induced Lipid Peroxidation in Brain Microsomes; experiment: NADPH-induced (enzymatic) lipid peroxidation in brain microsomes (AEI); assay type: biochemical, rat (male Hannover-Wistar); conditions: NADPH-induced lipid peroxidation, rat brain microsomes, 37° C., 20 minutes, pH 6.8
measurement.name: IC50 (µM)

>>> print(df.to_string())
                                   compound  recorded_measurement
0  Cc1c(C)c2c(c(C)c1O)CCC(C)(CCCC(C)CCCC(C)CCCC(C)C)O2 (racemic) [Vitamin E, reference compound]                   406
1  CC[C@@]12C=C(C(=O)OCCOC(=O)c3cccs3)n3c4c(c5ccccc53)CCN(CCC1)[C@@H]42                  11.2
2  CC[C@@]12C=C(C(=O)OCCOC(=O)c3ccc([N+](=O)[O-])cc3)n3c4c(c5ccccc53)CCN(CCC1)[C@@H]42                  20.4
3  COC1=C(OC)C(=O)C(CCCCCCCCCCO)=C(C)C1=O [Idebenone, reference compound]                   1.2
4  CC[C@@]12C=C(C(=O)OCCOC(=O)c3cc(OC)c(OC)c(OC)c3)n3c4c(c5ccccc53)CCN(CCC1)[C@@H]42                  10.3
5  CC[C@@]12C=C(C(=O)OCCO)n3c4c(c5ccccc53)CCN(CCC1)[C@@H]42                   9.7
6  CC[C@]12C=C(C(=O)OCCOC(=O)c3ccc(Cl)cc3)n3c4c(c5ccccc53)CCN(CCC1)[C@H]42                   3.2
7  CC[C@]12C=C(C(=O)OCCO)n3c4c(c5ccccc53)CCN(CCC1)[C@H]42                  12.6
8  CC[C@]12C=C(C(=O)OCCOC(=O)c3cc(OC)c(OC)c(OC)c3)n3c4c(c5ccccc53)CCN(CCC1)[C@H]42                   5.9
